Experiment: Solubility of ibuprofen in simulated salivary fluid (excess ibuprofen, sonication, centrifugation, HPLC)
Type: physicochemical
Settings: fassgf or other biorelevant, thermodynamic from solid, simulated salivary fluid (19 mM phosphate buffer, 150 mM sodium chloride, pH 6.75), sonicated approximately 1 hour, centrifuged
propertyMeasured: solubility (µg/mL)
Could you give me the number in µg/mL? Just the number is fine.

Enquiry: Suppose we examine the compound CC(C)Cc1ccc(C(C)C(=O)O)cc1 (stereo not shown) ; what solubility value has been reported?
Return: 1800
